FYI, the data here is from patent US20040121947A1.

# tested-target: T1, memapsin 2 (Homo sapiens, UniProt P56817)
# T1 construct: pET-11 vector-derived residues 1-15 of promemapsin 2-T1 (N, cleaved yes); made in house; host or cells: E. coli
# T1 sequence (P56817 41-454 limits assumed): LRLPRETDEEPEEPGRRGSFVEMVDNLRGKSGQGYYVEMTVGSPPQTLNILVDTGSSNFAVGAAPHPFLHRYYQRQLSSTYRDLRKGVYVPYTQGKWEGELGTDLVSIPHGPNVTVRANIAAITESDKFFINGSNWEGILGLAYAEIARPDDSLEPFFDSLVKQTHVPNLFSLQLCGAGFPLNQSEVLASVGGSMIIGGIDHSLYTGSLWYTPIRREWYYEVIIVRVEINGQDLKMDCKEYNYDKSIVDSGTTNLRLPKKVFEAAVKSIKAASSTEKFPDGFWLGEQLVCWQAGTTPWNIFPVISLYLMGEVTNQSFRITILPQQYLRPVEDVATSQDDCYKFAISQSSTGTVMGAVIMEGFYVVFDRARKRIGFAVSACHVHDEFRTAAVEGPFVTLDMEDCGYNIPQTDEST
# procedure-details: Inhibition of memapsin 2 proteolytic activity, fluorogenic substrate FS-2
# Format: biochemical
# stated-conditions: memapsin 2; independent of substrate, converted from Ki apparent; read-out: Ki
pKi: −log10 of the molar value.
Label false (0) if pKi falls below 6; label true (1) in every other case.

Say whether CCCCNC(=O)[C@@H](NC(=O)[C@H](C)C[C@H](O)[C@H](CC(C)C)NC(=O)[C@H](CCSC)NC(=O)OCn1nc(C)cc1C)C(C)C shows pKi of 6 or more. true (1)

Say whether CC(C)CNC(=O)[C@@H](NC(=O)[C@H](C)C[C@H](O)[C@H](CC(C)C)NC(=O)[C@H](CCS(C)(=O)=O)NC(=O)[C@H](CC(C)C)NC(=O)OC(C)(C)C)C(C)C shows pKi of 6 or more. true (1)

Say whether CCCCNC(=O)[C@@H](NC(=O)[C@H](C)C[C@H](O)[C@H](CC1CCC1)NC(=O)[C@H](CCSC)NC(=O)OCn1nc(C)cc1C)C(C)C shows pKi of 6 or more. true (1)

Say whether CSCC[C@H](NC(=O)[C@@H](NC(=O)OC(C)(C)C)C(C)C)C(=O)N[C@@H](CC(C)C)[C@@H](O)C[C@@H](C)C(=O)N[C@@H](C(C)C)C1CCCCO1 (some centres unmarked) [MMI-130] shows pKi of 6 or more. false (0)

Say whether CSCC[C@H](NC(=O)C(Cn1nc(C)cc1C)C(C)C)C(=O)N[C@@H](CC(C)C)[C@@H](O)C[C@@H](C)C(=O)N[C@H](C(=O)NCc1ccco1)C(C)C (some centres unmarked) shows pKi of 6 or more. true (1)

Say whether COc1cccc(C(=O)N[C@@H](CSC)C(=O)N[C@@H](CC(C)C)[C@@H](O)C[C@@H](C)C(=O)N[C@@H](CC(C)C)C(=O)NC(C)C)c1OC shows pKi of 6 or more. true (1)

Say whether CSCC[C@H](NC(=O)[C@H](C(C)C)N1CCCNC1=O)C(=O)N[C@@H](CC(C)C)[C@@H](O)C[C@@H](C)C(=O)N[C@@H](CC(C)C)C(=O)NCC(C)C shows pKi of 6 or more. true (1)

Say whether CCC(C)[C@H](NC(=O)[C@H](C)C[C@H](O)[C@H](CC(C)C)NC(=O)[C@H](CCO)NC(=O)c1cnc2ccccc2c1)C(=O)N[C@H]1c2ccccc2C[C@H]1O (some centres unmarked) shows pKi of 6 or more. false (0)

Say whether CSCC[C@H](NC(=O)C(C)Cn1nc(C)cc1C)C(=O)N[C@@H](CC(C)C)[C@@H](O)C[C@@H](C)C(=O)N[C@@H](CC(C)C)C(=O)NCc1ccco1 (some centres unmarked) shows pKi of 6 or more. true (1)

Say whether CSCC[C@H](NC(=O)[C@@H](NC(=O)OC(C)(C)C)C(C)C)C(=O)N[C@@H](CC(C)C)[C@@H](O)C[C@@H](CC(F)(F)F)C(=O)N[C@H](C(=O)NCc1ccccc1)C(C)C shows pKi of 6 or more. false (0)

---

Provide the reported Vi/Vo of each item.
# tested-target: T1, memapsin 2 (Homo sapiens, UniProt P56817)
# T1 construct: pET-11 vector-derived residues 1-15 of promemapsin 2-T1 (N, cleaved yes); made in house; host or cells: E. coli
# procedure-details: Inhibition of memapsin 2 proteolytic activity, fluorogenic substrate FS-2
# Format: biochemical
# stated-conditions: ratio of initial cleavage velocities of FS-2 with/without compound; enzyme and inhibitor concentrations equal (e.g., about 80 nM, 100 nM)
Just the number, please, no unit attached.

The molecule CSCC[C@H](NC(=O)OCCn1nc(C(C)(C)C)cc1C(C)(C)C)C(=O)N[C@@H](CC(C)C)[C@@H](O)C[C@@H](C)C(=O)N[C@@H](CC(C)C)C(=O)NCC(C)C showed Vi/Vo equal to 1.16

The molecule CSCC[C@H](NC(=O)OCn1nc(C)cc1C)C(=O)N[C@@H](CC1CCCC1)[C@@H](O)C[C@@H](C)C(=O)N[C@@H](CC(C)C)C(=O)NCC(C)C showed Vi/Vo equal to 1.08

The molecule C=C(C[C@H](O)[C@H](CC(C)C)NC(=O)[C@H](CCSC)NC(=O)[C@@H](NC(=O)OC(C)(C)C)C(C)C)C(=O)N[C@H](C(=O)NCc1ccccc1)C(C)C showed Vi/Vo equal to 0.84

The molecule CSCC[C@H](NC(=O)OCc1ccoc1)C(=O)N[C@@H](CC(C)C)[C@@H](O)C[C@@H](C)C(=O)N[C@H](C(=O)NCc1ccccc1)C(C)C showed Vi/Vo equal to 0.48

The molecule CSCC[C@H](NC(=O)NCc1ccco1)C(=O)N[C@@H](CC(C)C)[C@@H](O)C[C@@H](C)C(=O)N[C@H](C(=O)NCc1ccccc1)C(C)C [MMI-115] showed Vi/Vo equal to 1.04

The molecule CC(C)C[C@H](NC(=O)[C@H](CCS(C)(=O)=O)NC(=O)OCc1ccc(CN(C)C)o1)[C@@H](O)C[C@@H](C)C(=O)N[C@H](C(=O)NCc1ccccc1)C(C)C showed Vi/Vo equal to 1.01

The molecule Cc1cc(C)n(COC(=O)N[C@@H](CCS(C)(=O)=O)C(=O)N[C@@H](CC(C)C)[C@@H](O)C[C@@H](C)C(=O)N[C@H](C(=O)NCc2ccccc2)C(C)C)n1 showed Vi/Vo equal to 0.5

The molecule CC(C)C[C@H](NC(=O)[C@@H]1CC(=O)NCCCCCOC(=O)N[C@@H](C(C)C)C(=O)N1)[C@@H](O)C[C@@H](C)C(=O)N[C@H](C(=O)NCc1ccccc1)C(C)C showed Vi/Vo equal to 0.68

The molecule CSCC[C@H](NC(=O)[C@@H](NC(=O)OC(C)(C)C)C(C)C)C(=O)N[C@@H](CC(C)C)[C@@H](O)C[C@@H](C)C(=O)N[C@@H](CC(C)C)C(=O)NCc1ccco1 showed Vi/Vo equal to 0.29

The molecule CSCC[C@H](NC(=O)[C@@H](NC(=O)OC(C)(C)C)C(C)C)C(=O)N[C@@H](CC(C)C)[C@@H](O)C[C@@H](C)NC(=O)[C@H](NC(=O)OCc1ccccc1)C(C)C showed Vi/Vo equal to 0.98

The molecule CC(C)C[C@H](NC(=O)[C@H](CS(C)(=O)=O)NC(=O)OCc1ccncc1)[C@@H](O)C[C@@H](C)C(=O)N[C@H](C(=O)NCc1ccccc1)C(C)C [MMI-144] showed Vi/Vo equal to 1.03

---

# tested-target: T1, memapsin 2 (Homo sapiens, UniProt P56817)
# T1 construct: pET-11 vector-derived residues 1-15 of promemapsin 2-T1 (N, cleaved yes); made in house; host or cells: E. coli
# procedure-details: Inhibition of memapsin 2 proteolytic activity, fluorogenic substrate FS-2
# Format: biochemical
# stated-conditions: memapsin 2; independent of substrate, converted from Ki apparent; read-out: Ki
# Procedure: Ki is the inhibition equilibrium constant which indicates the ability of compounds to inhibit the β-secretase activity of memapsin 2 and memapsin 1. […] The K1 value is independent of the substrate, and converted from Ki apparent. The Vi/Vo values depicted in Table 1 were determined at conditions under which the enzyme and inhibitor concentrations were equal (e.g., about 80 nM, 100 nM). […]
The threshold is 700 nM. Values of Ki beneath it are tagged Condition met; values meeting or exceeding it are tagged Condition not met.

For this molecule, is Ki lower than 700 nM? CSCC[C@H](NC(=O)CCn1nc(C)cc1C)C(=O)N[C@@H](CC(C)C)[C@@H](O)C[C@@H](C)C(=O)N[C@H](C(=O)NCC(C)C)C(C)C Condition met

For this molecule, is Ki lower than 700 nM? CSCC[C@H](NC(=O)CCn1nc(C)cc1C)C(=O)N[C@@H](CC(C)C)[C@@H](O)C[C@@H](C)C(=O)N[C@H](C(=O)NCc1ccco1)C(C)C Condition met

For this molecule, is Ki lower than 700 nM? CSCC[C@H](NC(=O)OCn1nc(C)cc1C)C(=O)N[C@@H](CC(C)C)[C@@H](O)C[C@@H](C)C(=O)N[C@H](C(=O)NCc1ccco1)C(C)C Condition met

For this molecule, is Ki lower than 700 nM? CSCC[C@H](NC(=O)OCn1nc(C)cc1C)C(=O)N[C@@H](CC(C)C)[C@@H](O)C[C@@H](C)C(=O)N[C@H](C(=O)N1CCN(C)CC1)C(C)C Condition met

For this molecule, is Ki lower than 700 nM? CSCC[C@H](NC(=O)OCc1cc(C)nn1C)C(=O)N[C@@H](CC(C)C)[C@@H](O)C[C@@H](C)C(=O)N[C@H](C(=O)NCC(C)C)C(C)C Condition met

For this molecule, is Ki lower than 700 nM? CCCCNC(=O)[C@H](CC(C)C)NC(=O)[C@H](C)C[C@H](O)[C@H](CC(C)C)NC(=O)[C@H](CCSC)NC(=O)[C@H](CC(C)C)NC(=O)OC(C)(C)C Condition met

For this molecule, is Ki lower than 700 nM? CSCC[C@H](NC(=O)[C@@H](NC(=O)OC(C)(C)C)C(C)C)C(=O)N[C@@H](CC(C)C)[C@@H](O)C[C@@H](C)C(=O)N[C@H](CO)C(C)C Condition not met

For this molecule, is Ki lower than 700 nM? CSCCC(NC(=O)[C@H](CC(C)C)NC(=O)OC(C)(C)C)C(=O)N[C@@H](CC(C)C)[C@@H](O)C[C@@H](C)C(=O)N[C@@H](CC(C)C)C(=O)NCc1ccccc1 (some centres unmarked) Condition met

For this molecule, is Ki lower than 700 nM? CSCC[C@H](NC(=O)[C@@H](NC(=O)OC(C)(C)C)C(C)C)C(=O)N[C@@H](CC(C)C)[C@@H](O)C[C@@H](C)C(=O)N[C@H]1CCCC[C@@H]1O Condition not met

For this molecule, is Ki lower than 700 nM? CC(C)C[C@H](NC(=O)[C@H](CC(N)=O)NC(=O)[C@@H](NC(=O)OC(C)(C)C)C(C)C)[C@@H](O)C[C@@H](C)C(=O)N[C@@H](C)C(=O)NCc1ccccc1 Condition met

For this molecule, is Ki lower than 700 nM? CSCC[C@H](NC(=O)OCn1nc(C)cc1C)C(=O)N[C@@H](CC(C)C)[C@@H](O)C[C@@H](C)C(=O)N[C@@H](CC(C)C)C(=O)N1CCN(C)CC1 Condition not met
